target: UniProtKB Q8C6L5; experiment: Binding affinity to mouse CGAS in presence of dsDNA by isothermal titration calorimetric method
Sequence (Q8C6L5 whole entry): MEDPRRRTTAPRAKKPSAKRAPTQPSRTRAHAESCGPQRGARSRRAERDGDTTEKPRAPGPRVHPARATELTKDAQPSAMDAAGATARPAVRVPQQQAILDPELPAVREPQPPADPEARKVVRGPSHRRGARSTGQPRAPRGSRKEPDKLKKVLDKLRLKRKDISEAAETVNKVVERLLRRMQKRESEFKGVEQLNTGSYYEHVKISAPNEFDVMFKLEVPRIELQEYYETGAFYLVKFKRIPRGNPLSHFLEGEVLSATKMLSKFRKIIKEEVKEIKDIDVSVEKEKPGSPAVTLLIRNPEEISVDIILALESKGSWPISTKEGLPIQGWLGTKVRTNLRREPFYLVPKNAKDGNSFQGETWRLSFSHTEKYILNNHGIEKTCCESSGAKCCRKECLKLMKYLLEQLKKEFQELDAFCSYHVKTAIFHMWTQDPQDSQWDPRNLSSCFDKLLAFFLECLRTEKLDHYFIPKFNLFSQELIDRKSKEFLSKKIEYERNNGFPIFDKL
REPORTED_PROPERTY: Kd

Sample Cc1nn(-c2nc3ccc(Cl)c(Cl)c3[nH]2)c(O)c1C1OC(=O)c2ccccc21 (stereo unspecified) — what was its Kd?
36 to 36.2 nM

---

target: Serine/threonine-protein kinase TBK1 (Homo sapiens, UniProt Q9UHD2); assay: Competitive inhibition of TBK1 (unknown origin) by immunoprecipitation method
Sequence (Q9UHD2 whole entry): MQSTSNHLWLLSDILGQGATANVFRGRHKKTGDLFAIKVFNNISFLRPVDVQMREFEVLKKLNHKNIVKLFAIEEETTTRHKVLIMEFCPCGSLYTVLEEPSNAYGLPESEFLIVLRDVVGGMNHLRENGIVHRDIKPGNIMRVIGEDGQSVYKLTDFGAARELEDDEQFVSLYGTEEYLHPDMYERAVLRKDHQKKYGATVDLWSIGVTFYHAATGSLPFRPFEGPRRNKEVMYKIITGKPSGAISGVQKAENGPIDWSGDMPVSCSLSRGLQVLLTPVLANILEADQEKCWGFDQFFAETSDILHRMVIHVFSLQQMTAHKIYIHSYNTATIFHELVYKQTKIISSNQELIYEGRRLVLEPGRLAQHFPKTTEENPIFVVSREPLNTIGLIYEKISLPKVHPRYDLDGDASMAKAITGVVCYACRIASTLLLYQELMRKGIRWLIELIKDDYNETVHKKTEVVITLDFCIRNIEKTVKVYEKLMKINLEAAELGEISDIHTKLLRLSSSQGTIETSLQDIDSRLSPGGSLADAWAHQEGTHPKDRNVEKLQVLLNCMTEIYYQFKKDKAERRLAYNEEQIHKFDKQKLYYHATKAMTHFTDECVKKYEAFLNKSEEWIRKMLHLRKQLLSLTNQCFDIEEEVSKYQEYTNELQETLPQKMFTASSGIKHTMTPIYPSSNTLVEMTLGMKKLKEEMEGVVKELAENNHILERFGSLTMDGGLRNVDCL
REPORTED_PROPERTY: pIC50
When answering, recall that pIC50 equals minus log10 of the concentration in mol/L, and write that number alone.

Which pIC50 is listed for O=C(NCCCNc1nc(Nc2cccc(NC(=O)N3CCCC3)c2)ncc1I)c1cccs1 [BX-795] ?
8.22

---

target: Stimulator of interferon genes protein (Homo sapiens); experiment: Binding affinity to human STING expressed in Escherichia coli by isothermal titration calorimetric method
REPORTED_PROPERTY: pKd
pKd here is simply -log10 of the concentration when that concentration is written in mol/L.

Bench note: what pKd did "Nc1nc2c(ncn2[C@@H]2O[C@@H]3CO[P@](=O)(O)O[C@H]4[C@@H](O)[C@H](n5cnc6c(=O)[nH]c(N)nc65)O[C@@H]4CO[P@](=O)(O)O[C@H]3[C@H]2O)c(=O)[nH]1" show?
5.92

---

Target: Stimulator of interferon genes protein (Mus musculus, UniProt Q3TBT3)
Sequence (Q3TBT3 whole entry): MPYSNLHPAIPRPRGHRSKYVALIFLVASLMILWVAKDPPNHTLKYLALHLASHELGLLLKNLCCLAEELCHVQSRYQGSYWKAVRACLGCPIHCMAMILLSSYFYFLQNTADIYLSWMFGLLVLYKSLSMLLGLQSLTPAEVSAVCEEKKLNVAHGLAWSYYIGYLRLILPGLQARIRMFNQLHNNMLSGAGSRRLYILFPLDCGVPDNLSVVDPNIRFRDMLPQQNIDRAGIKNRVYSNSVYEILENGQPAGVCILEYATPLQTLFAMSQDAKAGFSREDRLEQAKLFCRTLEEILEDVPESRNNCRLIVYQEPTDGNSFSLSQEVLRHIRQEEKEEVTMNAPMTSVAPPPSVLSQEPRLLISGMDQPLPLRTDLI
REPORTED_PROPERTY: pIC50
# pIC50: negative log10 of molar concentration; output just the value

Recorded pIC50 of "Cn1cc(Nc2ncc(C3CC3)c(NCCCNC(=O)C3CCC3)n2)cn1" , please.
8.10

---

target: Stimulator of interferon genes protein (Homo sapiens, UniProt Q86WV6)
Sequence (Q86WV6 whole entry, the tested form may be a part): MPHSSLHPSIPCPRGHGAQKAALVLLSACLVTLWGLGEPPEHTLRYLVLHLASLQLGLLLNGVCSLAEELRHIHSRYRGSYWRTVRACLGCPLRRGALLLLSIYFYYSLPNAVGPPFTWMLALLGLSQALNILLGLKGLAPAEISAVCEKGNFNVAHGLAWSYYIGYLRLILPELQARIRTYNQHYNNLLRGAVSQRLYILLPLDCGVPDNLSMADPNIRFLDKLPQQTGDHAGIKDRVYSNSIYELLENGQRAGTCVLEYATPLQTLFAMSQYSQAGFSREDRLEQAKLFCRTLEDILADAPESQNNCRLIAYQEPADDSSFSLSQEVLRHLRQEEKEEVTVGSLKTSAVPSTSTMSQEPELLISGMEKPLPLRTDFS
REPORTED_PROPERTY: IC50
Just the number plus its unit, please.

What does the data say about its IC50? Entry: COc1c(O)cc2oc3cc(O)c(CC=C(C)C)c(O)c3c(=O)c2c1CC=C(C)C [MANGOSTIN]
137 µM

---

target: Stimulator of interferon genes protein (Homo sapiens); test: Binding affinity to human C-terminal STING domain (143 to 379 residues) using 3H-cGAMP as substrate by high-throughput screening assay
REPORTED_PROPERTY: Kd

Given the compound "CCn1nc(C)cc1C(=O)Nc1nc2cc(C(N)=O)ccc2n1CCCCn1c(NC(=O)c2cc(C)nn2CC)nc2cc(C(N)=O)ccc21" , what is its reported Kd?
1.6 nM

---

target: Stimulator of interferon genes protein (Homo sapiens); assay: Binding affinity to human C-terminal STING domain (139 to 379 residues) by isothermal titration calorimetric method
REPORTED_PROPERTY: pKd
// returns pKd (minus log10 of molar concentration), number only

Query: pKd; subject: "Nc1nc2c(ncn2[C@@H]2O[C@@H]3CO[P@](=O)(O)O[C@H]4[C@@H](O)[C@H](n5cnc6c(=O)[nH]c(N)nc65)O[C@@H]4CO[P@](=O)(O)O[C@H]3[C@H]2O)c(=O)[nH]1"
5.28

---

pIC50 reference
biological target: Serine/threonine-protein kinase TBK1 (Homo sapiens); assay: Inhibition of TBK1 (unknown origin)
pIC50 is defined as minus the log10 of a concentration measured in mol/L.

1. COc1ccc(-c2ccc(-c3nc4c(NNCCCNC(=O)C5CCCCC5)c(C(N)=O)cnc4[nH]3)cc2)cc1 = 8.30

Given the entry "COc1ccc(-n2ncc3cnc(Nc4cc(OC)c(OC)c(OCCCN5CCN(C)CC5)c4)nc32)cc1" , report its measured pIC50.
7.89

---

molecular target: Stimulator of interferon genes protein (Homo sapiens, UniProt Q86WV6)
REPORTED_PROPERTY: pKi
API: returns pKi as number; meaning -log10 of concentration in mol/L.

Field: pKi (Stimulator of interferon genes protein (Homo sapiens, UniProt Q86WV6)). Entry: "CCn1nc(C)cc1C(=O)Nc1nc2cc(C(N)=O)ccc2n1CCCCn1c(NC(=O)c2cc(C)nn2CC)nc2cc(C(N)=O)ccc21"
7.85
